Data origin, for the record: the kinase profiling compilation of Christmann-Franck et al. (2016)

Biological target: IRAK3 (human)
Assay: KINOMEscan competition binding
Details: compound 10.0 µM
experimentalReadout: kinase still bound, per cent of control (%)
Respond with the bare value in %.

Below, each entry is followed by its recorded kinase still bound, per cent of control result.
1) COC(=O)Nc1ccc(-c2nc(N3CCOCC3)c3cnn(C4CCN(C(=O)OC)CC4)c3n2)cc1: 79
2) CC(C)n1nc(-c2cc3cc(O)ccc3[nH]2)c2c(N)ncnc21: 12
3) COc1ccc(-c2ccc3c(N4CCOCC4)nc(N4C[C@@H](C)O[C@@H](C)C4)nc3n2)cc1CO: 100

Now, please, on to the next molecule.
Exam item: Reported kinase still bound, per cent of control, molecule CCC(=O)N1CCN(c2ccc(-n3c(=O)ccc4cnc5ccc(-c6cnc7ccccc7c6)cc5c43)cc2C(F)(F)F)CC1 : ____
Marked response: 27

====

Molecular target: EIF2AK1 (human)
Assay: KINOMEscan competition binding
Conditions: compound 10.0 µM
molecules and their reported kinase still bound, per cent of control
// note: answer is a bare numeric in %

1. CCC(=O)N1CCN(c2ccc(-n3c(=O)ccc4cnc5ccc(-c6cnc7ccccc7c6)cc5c43)cc2C(F)(F)F)CC1: 57
2. COc1ccc(-c2ccc3c(N4CCOCC4)nc(N4C[C@@H](C)O[C@@H](C)C4)nc3n2)cc1CO: 88
3. COC(=O)Nc1ccc(-c2nc(N3CCOCC3)c3cnn(C4CCN(C(=O)OC)CC4)c3n2)cc1: 56

In the following, a different molecule is considered.
Exam item: Lab request: please report kinase still bound, per cent of control under test system EIF2AK1 (human) for CC(C)n1nc(-c2cc3cc(O)ccc3[nH]2)c2c(N)ncnc21
Marked response: 93

====

Biological target: STK32A (human)
Experiment: KINOMEscan competition binding
Settings: compound 10.0 µM
Listed molecules paired with reported kinase still bound, per cent of control
Express the result in % but write the number alone.

// worked examples, kinase still bound, per cent of control included
1. CC(C)n1nc(-c2cc3cc(O)ccc3[nH]2)c2c(N)ncnc21: 1.8
2. COC(=O)Nc1ccc(-c2nc(N3CCOCC3)c3cnn(C4CCN(C(=O)OC)CC4)c3n2)cc1: 100
3. COc1ccc(-c2ccc3c(N4CCOCC4)nc(N4C[C@@H](C)O[C@@H](C)C4)nc3n2)cc1CO: 67

Please examine the following record next.
Exam item: Name the recorded kinase still bound, per cent of control for CCC(=O)N1CCN(c2ccc(-n3c(=O)ccc4cnc5ccc(-c6cnc7ccccc7c6)cc5c43)cc2C(F)(F)F)CC1 .
Marked response: 100

====

Quick list: kinase still bound, per cent of control per entry.
Molecular target: RIOK1 (human)
Assay: KINOMEscan competition binding
Conditions: compound 10.0 µM
Dear colleague, please return just the value in %, with no unit written.

Examples from the recorded data:
1. COC(=O)Nc1ccc(-c2nc(N3CCOCC3)c3cnn(C4CCN(C(=O)OC)CC4)c3n2)cc1: 92
2. COc1ccc(-c2ccc3c(N4CCOCC4)nc(N4C[C@@H](C)O[C@@H](C)C4)nc3n2)cc1CO: 51
3. CC(C)n1nc(-c2cc3cc(O)ccc3[nH]2)c2c(N)ncnc21: 100

Proceeding to the next molecule to report its kinase still bound, per cent of control.
Exam item: Suppose we examine the molecule CCC(=O)N1CCN(c2ccc(-n3c(=O)ccc4cnc5ccc(-c6cnc7ccccc7c6)cc5c43)cc2C(F)(F)F)CC1 ; what kinase still bound, per cent of control value has been reported?
Marked response: 81

====

Target: RPS6KA6 KD2 (human) (UniProt Q9UK32)
Sequence (Q9UK32 whole entry, looked up): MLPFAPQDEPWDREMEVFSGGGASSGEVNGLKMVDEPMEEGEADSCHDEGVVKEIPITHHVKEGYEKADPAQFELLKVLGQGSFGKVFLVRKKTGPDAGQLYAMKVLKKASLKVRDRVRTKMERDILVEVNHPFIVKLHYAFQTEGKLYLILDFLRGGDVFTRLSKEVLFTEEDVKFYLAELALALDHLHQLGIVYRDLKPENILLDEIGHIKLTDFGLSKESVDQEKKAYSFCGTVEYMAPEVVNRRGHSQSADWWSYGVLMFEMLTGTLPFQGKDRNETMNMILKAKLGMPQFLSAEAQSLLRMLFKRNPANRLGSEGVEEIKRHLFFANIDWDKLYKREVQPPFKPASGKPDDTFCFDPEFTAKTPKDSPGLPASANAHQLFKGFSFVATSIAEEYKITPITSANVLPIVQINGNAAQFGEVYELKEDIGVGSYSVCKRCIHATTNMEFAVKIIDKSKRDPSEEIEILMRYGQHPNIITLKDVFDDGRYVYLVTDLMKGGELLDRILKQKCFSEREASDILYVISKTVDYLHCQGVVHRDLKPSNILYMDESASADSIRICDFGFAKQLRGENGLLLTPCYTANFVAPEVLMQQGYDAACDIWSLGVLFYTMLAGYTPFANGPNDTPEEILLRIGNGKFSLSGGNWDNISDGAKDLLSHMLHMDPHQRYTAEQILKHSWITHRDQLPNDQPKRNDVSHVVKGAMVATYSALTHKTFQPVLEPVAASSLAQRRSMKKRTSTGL
Test: KINOMEscan competition binding
Conditions: compound 10.0 µM
experimentalReadout: kinase still bound, per cent of control (%)
Write down the numeric answer in % and omit the unit.

1. COc1ccc(-c2ccc3c(N4CCOCC4)nc(N4C[C@@H](C)O[C@@H](C)C4)nc3n2)cc1CO: 93
2. CC(C)n1nc(-c2cc3cc(O)ccc3[nH]2)c2c(N)ncnc21: 47
3. COC(=O)Nc1ccc(-c2nc(N3CCOCC3)c3cnn(C4CCN(C(=O)OC)CC4)c3n2)cc1: 96

Field: next compound
Exam item: Can you share its kinase still bound, per cent of control? I mean this compound: CCC(=O)N1CCN(c2ccc(-n3c(=O)ccc4cnc5ccc(-c6cnc7ccccc7c6)cc5c43)cc2C(F)(F)F)CC1
Marked response: 86

====

Biological target: ABL2 (human)
Assay: KINOMEscan competition binding
Settings: compound 10.0 µM
experimentalReadout: kinase still bound, per cent of control (%)
Please state the figure in %; there is no need to write the unit.

Consider the following illustrative entries.
1) COC(=O)Nc1ccc(-c2nc(N3CCOCC3)c3cnn(C4CCN(C(=O)OC)CC4)c3n2)cc1: 100
2) COc1ccc(-c2ccc3c(N4CCOCC4)nc(N4C[C@@H](C)O[C@@H](C)C4)nc3n2)cc1CO: 95
3) CC(C)n1nc(-c2cc3cc(O)ccc3[nH]2)c2c(N)ncnc21: 28

# evaluate next
Exam item: What value of kinase still bound, per cent of control has been reported for the following molecule? CCC(=O)N1CCN(c2ccc(-n3c(=O)ccc4cnc5ccc(-c6cnc7ccccc7c6)cc5c43)cc2C(F)(F)F)CC1
Marked response: 99

====

Each entry below carries its recorded kinase still bound, per cent of control.
Target: MERTK (human)
Test: KINOMEscan competition binding
Conditions: compound 10.0 µM
The answer is to be given in %; state only the numeric part.

1) COc1ccc(-c2ccc3c(N4CCOCC4)nc(N4C[C@@H](C)O[C@@H](C)C4)nc3n2)cc1CO: 100
2) COC(=O)Nc1ccc(-c2nc(N3CCOCC3)c3cnn(C4CCN(C(=O)OC)CC4)c3n2)cc1: 100
3) CC(C)n1nc(-c2cc3cc(O)ccc3[nH]2)c2c(N)ncnc21: 61

Switching to the query record.
Exam item: Recorded kinase still bound, per cent of control of CCC(=O)N1CCN(c2ccc(-n3c(=O)ccc4cnc5ccc(-c6cnc7ccccc7c6)cc5c43)cc2C(F)(F)F)CC1 , please.
Marked response: 53

====

Molecular target: MAPKAPK2 (human)
Settings: compound 1.0 µM
experimentalReadout: per cent of control
Give the number first and the unit second.

1) COc1ccc(-c2ccc3c(N4CCOCC4)nc(N4C[C@@H](C)O[C@@H](C)C4)nc3n2)cc1CO: 98%

Exam item: Data request, read-out per cent of control, for CCC(=O)N1CCN(c2ccc(-n3c(=O)ccc4cnc5ccc(-c6cnc7ccccc7c6)cc5c43)cc2C(F)(F)F)CC1
Marked response: 102%

Exam item: Give the measured per cent of control of CC(C)n1nc(-c2cc3cc(O)ccc3[nH]2)c2c(N)ncnc21 .
Marked response: 96%

Exam item: per cent of control lookup needed for COC(=O)Nc1ccc(-c2nc(N3CCOCC3)c3cnn(C4CCN(C(=O)OC)CC4)c3n2)cc1 , thanks.
Marked response: 98%

====

Biological target: PLK2 (human) (UniProt Q9NYY3)
Sequence (Q9NYY3 whole entry, looked up): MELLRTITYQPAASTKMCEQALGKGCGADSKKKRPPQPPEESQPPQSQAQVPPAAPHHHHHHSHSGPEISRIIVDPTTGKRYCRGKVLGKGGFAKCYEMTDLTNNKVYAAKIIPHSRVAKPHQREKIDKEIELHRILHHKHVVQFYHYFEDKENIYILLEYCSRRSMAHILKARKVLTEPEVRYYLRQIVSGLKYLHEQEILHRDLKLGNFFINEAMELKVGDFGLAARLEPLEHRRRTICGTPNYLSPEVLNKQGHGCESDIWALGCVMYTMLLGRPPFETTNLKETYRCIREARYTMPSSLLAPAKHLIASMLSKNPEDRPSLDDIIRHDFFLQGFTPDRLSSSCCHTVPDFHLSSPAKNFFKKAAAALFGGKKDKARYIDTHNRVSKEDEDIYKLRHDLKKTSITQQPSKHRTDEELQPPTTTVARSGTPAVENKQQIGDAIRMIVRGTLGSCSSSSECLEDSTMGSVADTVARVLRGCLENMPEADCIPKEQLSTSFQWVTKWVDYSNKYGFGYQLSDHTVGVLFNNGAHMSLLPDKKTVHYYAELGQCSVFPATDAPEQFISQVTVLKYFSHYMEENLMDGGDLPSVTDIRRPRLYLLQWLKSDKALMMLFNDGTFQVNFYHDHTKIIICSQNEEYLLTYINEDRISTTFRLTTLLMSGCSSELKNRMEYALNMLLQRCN
Assay: KINOMEscan competition binding
Details: compound 10.0 µM
experimentalReadout: kinase still bound, per cent of control (%)
Return type: number; implicit unit %.

Exam item: Reported kinase still bound, per cent of control for CC(C)n1nc(-c2cc3cc(O)ccc3[nH]2)c2c(N)ncnc21 : what is it?
Marked response: 13

Exam item: Tell me the measured kinase still bound, per cent of control of COc1ccc(-c2ccc3c(N4CCOCC4)nc(N4C[C@@H](C)O[C@@H](C)C4)nc3n2)cc1CO , please.
Marked response: 100

Exam item: Which kinase still bound, per cent of control value is on record for COC(=O)Nc1ccc(-c2nc(N3CCOCC3)c3cnn(C4CCN(C(=O)OC)CC4)c3n2)cc1 ?
Marked response: 96

Exam item: Any idea what its kinase still bound, per cent of control is? The compound is CCC(=O)N1CCN(c2ccc(-n3c(=O)ccc4cnc5ccc(-c6cnc7ccccc7c6)cc5c43)cc2C(F)(F)F)CC1
Marked response: 85

====

Target: PIK3C2B (human) (UniProt O00750)
Sequence (O00750 whole entry, looked up): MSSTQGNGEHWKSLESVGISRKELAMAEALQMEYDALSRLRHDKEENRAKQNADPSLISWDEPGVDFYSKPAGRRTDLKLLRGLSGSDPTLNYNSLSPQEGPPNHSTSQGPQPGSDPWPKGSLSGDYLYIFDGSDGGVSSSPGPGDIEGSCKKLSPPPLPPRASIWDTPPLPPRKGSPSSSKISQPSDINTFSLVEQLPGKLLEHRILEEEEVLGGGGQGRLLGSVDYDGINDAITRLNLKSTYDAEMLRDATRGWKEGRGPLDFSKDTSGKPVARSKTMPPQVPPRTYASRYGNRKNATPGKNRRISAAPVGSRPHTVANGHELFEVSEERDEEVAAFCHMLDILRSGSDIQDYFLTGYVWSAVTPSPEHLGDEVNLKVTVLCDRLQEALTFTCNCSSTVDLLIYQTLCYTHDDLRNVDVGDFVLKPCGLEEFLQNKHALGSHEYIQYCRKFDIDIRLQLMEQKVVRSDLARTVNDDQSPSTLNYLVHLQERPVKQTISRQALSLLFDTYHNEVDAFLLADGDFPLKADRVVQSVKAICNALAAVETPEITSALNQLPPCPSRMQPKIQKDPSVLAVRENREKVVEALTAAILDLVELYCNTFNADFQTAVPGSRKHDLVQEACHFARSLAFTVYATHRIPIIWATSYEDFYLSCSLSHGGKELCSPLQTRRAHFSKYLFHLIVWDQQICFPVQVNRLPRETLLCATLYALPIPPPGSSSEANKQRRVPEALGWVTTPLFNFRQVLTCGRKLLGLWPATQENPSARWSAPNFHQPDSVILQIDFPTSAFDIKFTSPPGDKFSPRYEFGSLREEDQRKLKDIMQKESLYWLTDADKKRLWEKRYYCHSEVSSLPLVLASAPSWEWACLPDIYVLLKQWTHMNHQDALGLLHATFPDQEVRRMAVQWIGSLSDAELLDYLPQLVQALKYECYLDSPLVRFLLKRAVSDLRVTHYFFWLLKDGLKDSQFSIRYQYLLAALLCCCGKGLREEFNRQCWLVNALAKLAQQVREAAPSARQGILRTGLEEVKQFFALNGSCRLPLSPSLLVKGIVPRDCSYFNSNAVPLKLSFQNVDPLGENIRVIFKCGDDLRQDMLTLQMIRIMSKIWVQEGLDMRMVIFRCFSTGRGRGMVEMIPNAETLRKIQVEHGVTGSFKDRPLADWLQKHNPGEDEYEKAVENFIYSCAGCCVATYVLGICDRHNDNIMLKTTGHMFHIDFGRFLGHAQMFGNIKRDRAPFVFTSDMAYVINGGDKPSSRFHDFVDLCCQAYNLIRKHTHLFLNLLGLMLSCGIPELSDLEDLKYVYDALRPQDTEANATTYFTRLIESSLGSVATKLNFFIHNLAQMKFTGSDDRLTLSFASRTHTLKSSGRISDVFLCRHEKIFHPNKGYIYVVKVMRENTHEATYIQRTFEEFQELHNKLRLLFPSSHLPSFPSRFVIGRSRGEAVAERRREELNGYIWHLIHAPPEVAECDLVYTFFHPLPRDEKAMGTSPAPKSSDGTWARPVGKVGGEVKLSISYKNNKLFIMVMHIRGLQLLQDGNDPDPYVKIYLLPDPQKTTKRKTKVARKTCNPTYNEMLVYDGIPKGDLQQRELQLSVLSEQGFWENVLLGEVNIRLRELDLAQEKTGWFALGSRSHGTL
Assay: KINOMEscan competition binding
Conditions: compound 10.0 µM
experimentalReadout: kinase still bound, per cent of control (%)
// note: answer is a bare numeric in %

1. CC(C)n1nc(-c2cc3cc(O)ccc3[nH]2)c2c(N)ncnc21: 5.6
2. CCC(=O)N1CCN(c2ccc(-n3c(=O)ccc4cnc5ccc(-c6cnc7ccccc7c6)cc5c43)cc2C(F)(F)F)CC1: 25
3. COc1ccc(-c2ccc3c(N4CCOCC4)nc(N4C[C@@H](C)O[C@@H](C)C4)nc3n2)cc1CO: 85

Exam item: Find the recorded kinase still bound, per cent of control belonging to COC(=O)Nc1ccc(-c2nc(N3CCOCC3)c3cnn(C4CCN(C(=O)OC)CC4)c3n2)cc1 and report it.
Marked response: 100

====

Target: ITK (human)
Test: KINOMEscan competition binding
Settings: compound 10.0 µM
experimentalReadout: kinase still bound, per cent of control (%)
Number in %, nothing else.

Field: example entries. Status: answers known.
1. CCC(=O)N1CCN(c2ccc(-n3c(=O)ccc4cnc5ccc(-c6cnc7ccccc7c6)cc5c43)cc2C(F)(F)F)CC1: 100
2. COc1ccc(-c2ccc3c(N4CCOCC4)nc(N4C[C@@H](C)O[C@@H](C)C4)nc3n2)cc1CO: 88
3. CC(C)n1nc(-c2cc3cc(O)ccc3[nH]2)c2c(N)ncnc21: 100

Read the next record carefully.
Exam item: For the compound COC(=O)Nc1ccc(-c2nc(N3CCOCC3)c3cnn(C4CCN(C(=O)OC)CC4)c3n2)cc1 , what kinase still bound, per cent of control is on record?
Marked response: 91
